Sourced from patent US11046699B2

target: GCN2 (Homo sapiens); experiment: GCN2 enzymatic endpoint assay: phosphorylation of GFP-eIF2α measured by TR-FRET (Lanthascreen); assay type: biochemical; conditions: tested as described in Example 77; compound and/or hydrochloride, dihydrochloride or trifluoroacetic acid salt; read-out: IC 50 Activity
Sequence (Q9P2K8 whole entry): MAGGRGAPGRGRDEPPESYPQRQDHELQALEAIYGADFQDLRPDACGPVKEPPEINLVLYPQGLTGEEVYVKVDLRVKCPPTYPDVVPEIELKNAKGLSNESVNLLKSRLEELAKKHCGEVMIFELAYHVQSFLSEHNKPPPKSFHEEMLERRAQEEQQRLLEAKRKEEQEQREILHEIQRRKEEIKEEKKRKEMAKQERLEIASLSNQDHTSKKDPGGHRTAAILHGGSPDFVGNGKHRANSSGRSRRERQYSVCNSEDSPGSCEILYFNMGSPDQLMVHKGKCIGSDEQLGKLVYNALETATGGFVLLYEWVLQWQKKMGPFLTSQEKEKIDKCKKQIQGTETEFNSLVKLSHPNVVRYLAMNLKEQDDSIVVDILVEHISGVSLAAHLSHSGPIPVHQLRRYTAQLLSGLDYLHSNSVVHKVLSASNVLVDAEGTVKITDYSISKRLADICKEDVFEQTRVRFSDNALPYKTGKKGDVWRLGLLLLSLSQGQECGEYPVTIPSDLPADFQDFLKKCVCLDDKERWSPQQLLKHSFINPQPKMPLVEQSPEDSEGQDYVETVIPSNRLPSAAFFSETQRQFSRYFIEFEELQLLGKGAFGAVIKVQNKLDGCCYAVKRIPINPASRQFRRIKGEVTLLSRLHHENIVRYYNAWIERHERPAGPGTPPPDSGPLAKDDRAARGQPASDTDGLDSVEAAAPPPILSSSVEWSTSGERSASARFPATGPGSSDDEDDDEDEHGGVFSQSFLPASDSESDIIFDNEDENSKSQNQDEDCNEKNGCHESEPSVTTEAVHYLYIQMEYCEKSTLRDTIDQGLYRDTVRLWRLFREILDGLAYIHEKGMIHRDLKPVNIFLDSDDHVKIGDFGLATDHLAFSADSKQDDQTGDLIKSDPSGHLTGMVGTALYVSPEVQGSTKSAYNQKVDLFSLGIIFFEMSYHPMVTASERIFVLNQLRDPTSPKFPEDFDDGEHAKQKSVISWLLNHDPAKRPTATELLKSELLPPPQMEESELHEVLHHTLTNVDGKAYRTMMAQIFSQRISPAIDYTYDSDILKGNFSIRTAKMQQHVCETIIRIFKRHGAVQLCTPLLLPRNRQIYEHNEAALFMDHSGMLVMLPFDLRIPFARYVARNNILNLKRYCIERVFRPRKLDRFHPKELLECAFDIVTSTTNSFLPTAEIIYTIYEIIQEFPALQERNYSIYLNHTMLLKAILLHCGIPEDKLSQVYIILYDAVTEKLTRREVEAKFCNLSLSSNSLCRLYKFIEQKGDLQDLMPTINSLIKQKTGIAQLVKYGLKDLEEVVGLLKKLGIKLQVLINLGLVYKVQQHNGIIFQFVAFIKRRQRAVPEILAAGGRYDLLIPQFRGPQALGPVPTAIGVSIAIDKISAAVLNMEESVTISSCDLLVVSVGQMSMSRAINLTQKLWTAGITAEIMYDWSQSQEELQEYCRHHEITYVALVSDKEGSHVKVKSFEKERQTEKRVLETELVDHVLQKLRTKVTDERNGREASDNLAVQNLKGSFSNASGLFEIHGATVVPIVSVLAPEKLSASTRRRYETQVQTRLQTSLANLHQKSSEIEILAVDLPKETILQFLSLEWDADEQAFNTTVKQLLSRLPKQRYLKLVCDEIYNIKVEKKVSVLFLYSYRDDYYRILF
pIC50: −log10 of the molar value.

>  <compound>
COCC(C)(C)NC(=O)[C@@H]1CC[C@@H](Nc2ncc3c(Br)nn(-c4ccc5ncccc5c4)c3n2)C1

>  <pIC50>
6.30 to 6.70

$$$$
>  <compound>
O=C(NCCOC(F)(F)F)[C@@H]1CC[C@@H](Nc2ncc3c(Br)nn(-c4ccc5ncccc5c4)c3n2)C1

>  <pIC50>
6.30 to 6.70

$$$$
>  <compound>
CNC(=O)[C@]1(C)CCC(Nc2ncc3c(Br)nn(-c4ccc5c(c4)CNC5=O)c3n2)C1 (some centres unmarked)

>  <pIC50>
6.70 to 7.60

$$$$
>  <compound>
CNC(=O)[C@]1(C)CC[C@@H](Nc2ncc3c(Br)nn(-c4cc(Cl)cc(C#N)c4)c3n2)C1

>  <pIC50>
6.70 to 7.60

$$$$
>  <compound>
CNC(=O)[C@]1(C)CC[C@@H](Nc2ncc3c(Br)nn(-c4cc(CCNC(=O)OC)c5ncccc5c4)c3n2)C1

>  <pIC50>
6.70 to 7.60

$$$$
